System: ryegrass, Italian (italian ryegrass, Lolium multiflorum)
assay.method.text: Test A preemergence soil spray, visual injury rating 0-100
Format: in vivo
condition.notes: 31 g ai/ha, 10 days, 0 = no effect, 100 = complete control
Parameter Ryegrass, Italian plant response rating (0-100): see the listing below.
// no unit string in output, number only

>>> value_reported("CONC(=O)C1CC(NC(=O)C2(C)CN(c3cc(F)cc(F)c3)C(=O)O2)CO1 (stereo not drawn)")
20

# next compound below
Which value of Ryegrass, Italian plant response rating (0-100) has been reported for COC(=O)C1=CCC(NC(=O)C2(C)CN(c3cc(F)cc(F)c3)C(=O)O2)C1 (stereo not drawn) in the records?
50
